Target System: UniProtKB Q80SS6
Sequence (Q80SS6 whole entry): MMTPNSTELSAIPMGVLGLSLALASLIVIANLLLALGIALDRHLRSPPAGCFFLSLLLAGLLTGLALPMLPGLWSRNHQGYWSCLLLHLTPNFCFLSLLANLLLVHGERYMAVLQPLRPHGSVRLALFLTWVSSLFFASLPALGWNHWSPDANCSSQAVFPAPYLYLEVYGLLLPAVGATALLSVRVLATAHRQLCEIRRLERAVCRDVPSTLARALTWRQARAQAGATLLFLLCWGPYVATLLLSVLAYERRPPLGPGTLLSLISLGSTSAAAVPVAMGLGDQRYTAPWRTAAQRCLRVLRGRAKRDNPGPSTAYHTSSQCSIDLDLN
Experiment: STC1 cAMP Agonist EC50 Determination
Where a name gives a salt, the structure may show the parent alone.
Recorded Endpoint: EC50 (nM)

Molecule | Measurement Units | Reported Value
Cc1nc2ccc(C3OCCc4nc(SCc5c(F)cccc5Cl)n(-c5ccc(F)cc5)c43)cc2o1 (stereo not shown) [Example 135] | nM | 3840
COc1cc(C2(C)CCCc3nc(SCc4c(F)cc(-c5nn[nH]n5)cc4F)n(-c4ccc(F)cc4)c32)ccc1Cl (stereo not shown) [Example 90, trifluoroacetic acid] | nM | 3900
COc1ccc(C2(C)CCCc3nc(SCc4c(F)cc(CCN(C)C)cc4F)n(-c4ccc(F)cc4)c32)cc1OC (stereo not shown) [Example 111] | nM | 200
COc1cc(C2(C)CCCc3nc(SCc4c(F)cncc4F)n(-c4ccc(F)cc4)c32)ccc1Cl (stereo not shown) [Example 98, trifluoroacetic acid] | nM | 160
COc1cc(C2(C)CCCc3nc(SCc4c(F)cc(C(=O)NCCOCCOCCOCCO)cc4F)n(-c4ccc(F)cc4)c32)ccc1Cl (stereo not shown) [Example 84, trifluoroacetic acid] | nM | 340
COc1cc(C2CCCc3nc(SCc4c(F)cc(CCCN/C(N)=N/C#N)cc4F)n(-c4ccc(F)cc4)c32)ccc1Cl (stereo not shown) [Example 43, hydrochloride] | nM | 670
COc1cc(C2(C)CCCc3nc(SCc4c(F)cc(C(=O)N[C@@H](CCCNC(=N)N)C(=O)O)cc4F)n(-c4ccc(F)cc4)c32)ccc1Cl (stereo partly shown) [Example 83, trifluoroacetic acid] | nM | 130
COc1cc(C2CCCc3nc(SCc4c(F)cc(C(=O)NCC[N+](C)(C)C)cc4F)n(-c4ccc(F)cc4)c32)ccc1Cl (stereo not shown) [Example 13, 2,2,2-trifluoroacetate] | nM | 8040
COc1cc(C2CCCc3nc(SCc4c(F)cc(CCc5nnn[nH]5)cc4F)n(-c4ccc(F)cc4)c32)ccc1Cl (stereo not shown) [Example 49, trifluoroacetic acid] | nM | 940
C/N=C(\N)N/N=C/CCc1cc(F)c(CSc2nc3c(n2-c2ccc(F)cc2)C(c2ccc(Cl)c(OC)c2)CCC3)c(F)c1 (stereo not shown) [Example 48, hydrochloride] | nM | 350
COc1ccc(C2(C)CCCc3nc(SCc4nccs4)n(-c4ccc(F)cc4)c32)cc1OC (stereo not shown) [Example 117] | nM | 410
C=C1COC(c2ccc(OC)c(OC)c2)c2c1nc(SCc1c(F)cccc1Cl)n2-c1ccc(F)cc1 (stereo not shown) [Example 136] | nM | 1530
COc1cc(C2CCCc3nc(SCc4c(F)cc(OCCOCCN(C)C)cc4F)n(-c4ccc(F)cc4)c32)ccc1Cl (stereo not shown) [Example 34, hydrochloride] | nM | 3900
COc1cc(C2CCCc3nc(SCc4c(F)cncc4F)n(-c4ccc(F)cc4)c32)ccc1Cl (stereo not shown) [Example 50, trifluoroacetic acid] | nM | 280
COc1cc(C2CCCc3nc(SCc4c(F)ccc(F)c4Cl)n(-c4ccc(F)cc4)c32)ccc1Cl (stereo not shown) [Example 20] | nM | 510
COC(=O)[C@H](CCCNC(=N)N)NC(=O)c1cc(F)c(CSc2nc3c(n2-c2ccc(F)cc2)C(C)(c2ccc(Cl)c(OC)c2)CCC3)c(F)c1 (stereo partly shown) [Example 82, trifluoroacetic acid] | nM | 180
COc1cc(C2CCCc3nc(SCc4ccncc4F)n(-c4ccc(F)cc4)c32)ccc1Cl (stereo not shown) [Example 51, trifluoroacetic acid] | nM | 5500
COc1ccc(C2(C)CCCc3nc(SCc4c(F)cc(C(N)=O)cc4F)n(-c4ccc(F)cc4)c32)cc1OC (stereo not shown) [Example 104] | nM | 170
COc1cc(C2CCCc3nc(SCc4c(F)cc(OCc5nnn[nH]5)cc4F)n(-c4ccc(F)cc4)c32)ccc1Cl (stereo not shown) [Example 30] | nM | 960
COc1cccc(C2CCCc3nc(SCc4c(F)cncc4F)n(-c4ccc(F)cc4)c32)c1 (stereo not shown) [Example 71] | nM | 1910
COc1ccc(C2(C)CCCc3nc(SCc4c(F)cc(Br)cc4F)n(-c4ccc(F)cc4)c32)cc1OC (stereo not shown) [Example 109] | nM | 200
COc1cc(C2CCCc3nc(SCc4c(F)cc(CCC(N)=O)cc4F)n(-c4ccc(F)cc4)c32)ccc1Cl (stereo not shown) [Example 45, trifluoroacetic acid] | nM | 350
COc1cc(C2CCCc3nc(SCc4c(F)cccc4C#N)n(-c4ccc(F)cc4)c32)ccc1Cl (stereo not shown) [Example 14] | nM | 530
COc1ccc(C2(C)CCCc3nc(SCc4c(F)cccc4[N+](=O)[O-])n(-c4ccc(F)cc4)c32)cc1OC (stereo not shown) [Example 115] | nM | 220
COc1cc(C2CCCc3nc(SCc4c(F)cncc4Cl)n(-c4ccc(F)cc4)c32)ccc1Cl (stereo not shown) [Example 55, bis(trifluoroacetic acid)] | nM | 180
